Provide the reported pIC50 of each item.
molecular target: PI3Kδ (p110δ/p85α)(h) (Homo sapiens, UniProt O00329); assay: PI3K-HTRF in vitro enzyme assay, PI3Kδ; details: enzyme 0.1 μg/ml
Sequence (O00329 whole entry): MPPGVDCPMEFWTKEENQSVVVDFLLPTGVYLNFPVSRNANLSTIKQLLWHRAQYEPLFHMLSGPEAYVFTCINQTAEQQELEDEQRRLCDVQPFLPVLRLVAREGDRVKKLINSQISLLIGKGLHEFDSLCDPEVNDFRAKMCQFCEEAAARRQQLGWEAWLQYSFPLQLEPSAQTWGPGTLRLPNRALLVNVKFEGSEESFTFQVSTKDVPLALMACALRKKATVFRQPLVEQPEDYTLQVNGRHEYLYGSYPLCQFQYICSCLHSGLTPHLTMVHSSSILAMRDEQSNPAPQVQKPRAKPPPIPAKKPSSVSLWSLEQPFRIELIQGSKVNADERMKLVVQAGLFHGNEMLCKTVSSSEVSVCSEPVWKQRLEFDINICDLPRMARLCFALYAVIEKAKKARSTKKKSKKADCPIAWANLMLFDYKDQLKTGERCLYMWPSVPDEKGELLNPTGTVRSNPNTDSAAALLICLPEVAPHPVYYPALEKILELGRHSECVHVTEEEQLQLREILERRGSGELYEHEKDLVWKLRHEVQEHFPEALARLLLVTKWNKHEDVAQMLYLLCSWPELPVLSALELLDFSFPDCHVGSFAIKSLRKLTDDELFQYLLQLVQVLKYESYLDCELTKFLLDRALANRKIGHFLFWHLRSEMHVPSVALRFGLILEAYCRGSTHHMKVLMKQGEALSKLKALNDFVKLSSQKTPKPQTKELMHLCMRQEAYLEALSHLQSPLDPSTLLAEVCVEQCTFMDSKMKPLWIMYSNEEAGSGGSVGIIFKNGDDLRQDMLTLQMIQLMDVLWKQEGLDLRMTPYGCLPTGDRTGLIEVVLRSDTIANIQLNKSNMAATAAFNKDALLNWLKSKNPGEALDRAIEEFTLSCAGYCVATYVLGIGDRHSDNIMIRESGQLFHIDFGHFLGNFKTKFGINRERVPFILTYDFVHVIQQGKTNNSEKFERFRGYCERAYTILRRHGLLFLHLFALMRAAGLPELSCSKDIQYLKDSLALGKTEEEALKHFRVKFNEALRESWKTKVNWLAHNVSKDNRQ
Sequence (P27986 whole entry partner): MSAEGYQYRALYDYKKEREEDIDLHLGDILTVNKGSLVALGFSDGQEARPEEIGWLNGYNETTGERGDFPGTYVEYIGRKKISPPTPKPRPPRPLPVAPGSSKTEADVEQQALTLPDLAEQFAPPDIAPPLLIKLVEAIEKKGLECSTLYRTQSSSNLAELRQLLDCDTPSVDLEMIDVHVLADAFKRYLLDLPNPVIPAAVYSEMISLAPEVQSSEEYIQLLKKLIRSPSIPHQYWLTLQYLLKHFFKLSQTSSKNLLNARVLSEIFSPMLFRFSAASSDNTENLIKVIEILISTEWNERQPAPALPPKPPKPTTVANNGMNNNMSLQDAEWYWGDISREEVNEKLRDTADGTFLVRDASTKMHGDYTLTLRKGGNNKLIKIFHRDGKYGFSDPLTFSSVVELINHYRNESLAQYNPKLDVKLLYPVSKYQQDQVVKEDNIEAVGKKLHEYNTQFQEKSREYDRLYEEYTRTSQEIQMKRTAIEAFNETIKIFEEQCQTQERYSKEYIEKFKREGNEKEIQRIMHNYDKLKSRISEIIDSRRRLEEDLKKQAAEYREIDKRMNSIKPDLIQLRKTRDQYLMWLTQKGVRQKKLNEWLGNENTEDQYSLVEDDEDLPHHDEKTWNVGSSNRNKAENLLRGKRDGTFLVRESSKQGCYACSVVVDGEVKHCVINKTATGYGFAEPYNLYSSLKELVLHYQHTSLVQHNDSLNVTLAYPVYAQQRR
Answers are plain numbers, as −log10 of the molar value.

>>> print(df.to_string())
                                 mol_smiles  endpoint_value
0  CCC[C@H](Nc1ncnc2ccc(C#N)cc12)c1nc2cccc(-c3cnc(C)nc3)c2c(=O)n1-c1ccccc1            7.74
1  COc1ncc(-c2cccc3cc([C@H](C)Nc4ncnc5ccc(C#N)cc45)n(-c4ccccc4)c(=O)c23)cn1            8.00
2  Cc1ncc(-c2cccc3cc([C@H](C)Nc4ncnc5ccc(C#N)cc45)n(-c4ccccc4)c(=O)c23)cn1            8.30

Please look at the following compound next.
Which measured pIC50 belongs to C[C@H](Nc1ncnc2ccc(C#N)cc12)c1cc2cccc(-c3cnc(N(C)C)nc3)c2c(=O)n1-c1ccccc1 , tested on PI3Kδ (p110δ/p85α)(h) (Homo sapiens, UniProt O00329)? 7.60

Values compiled from patent US10941136B2.
